# LC50 (half-maximal ligand concentration for reporter induction) per record follows
target: Gal4 DBD/AaEcR (DEF) with VP16-βRXR-E (Aedes aegypti, UniProt P49880); construct: The wildtype D, E, and F domains from mosquito Aedes aegypti EcR (“AaEcR-DEF”); expressed in transfected cells; host or cells: 3T3 cells, transient transfection (Superfect); experiment: cell-based; format: cell-based; settings: average; dose response 33 μM to 0.01 μM, three-parameter logistic model; read-out: AA_3T3 LC50
Sequence (P28704 286-520 A311G/G315S/G445S/I449V): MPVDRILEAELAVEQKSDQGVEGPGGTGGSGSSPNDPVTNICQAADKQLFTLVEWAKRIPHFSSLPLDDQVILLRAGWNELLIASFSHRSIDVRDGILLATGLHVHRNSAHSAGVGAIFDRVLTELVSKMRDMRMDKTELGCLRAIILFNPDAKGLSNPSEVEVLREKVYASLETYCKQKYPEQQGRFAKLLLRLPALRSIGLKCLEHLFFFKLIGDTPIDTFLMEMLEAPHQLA
Sequence (P49880 405-776): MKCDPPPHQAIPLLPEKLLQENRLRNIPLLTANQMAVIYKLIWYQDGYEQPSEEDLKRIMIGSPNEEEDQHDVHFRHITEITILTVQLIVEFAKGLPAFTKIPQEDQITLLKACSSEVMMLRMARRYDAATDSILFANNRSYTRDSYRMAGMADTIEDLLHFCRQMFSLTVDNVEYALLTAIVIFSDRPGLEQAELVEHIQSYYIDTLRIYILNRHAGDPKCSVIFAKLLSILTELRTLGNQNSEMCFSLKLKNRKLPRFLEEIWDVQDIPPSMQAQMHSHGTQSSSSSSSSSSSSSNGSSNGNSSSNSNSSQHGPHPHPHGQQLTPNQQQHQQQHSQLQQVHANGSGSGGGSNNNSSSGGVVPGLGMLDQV
recorded-endpoint: LC50 (half-maximal ligand concentration for reporter induction)

test_smiles=COc1cccc(C(=O)NC(C)(C)C(=O)c2cc(C)cc(C)c2)c1C measured="> 33 µM"
test_smiles=Cc1cc(C)cc(C(=O)C2(NC(=O)c3ccccc3C)CCCC2)c1 measured="> 33 µM"
test_smiles=CCC(CC)(NC(=O)c1cccc(OC)c1C)C(=O)c1ccccc1 measured="> 33 µM"
test_smiles=COc1cccc(C(=O)NC2(C(=O)c3cc(C)cc(C)c3)CCCC2)c1 measured="> 33 µM"
test_smiles=CCc1ccc(C(=O)NC2(C(=O)c3cc(C)cc(C)c3)CCCC2)cc1 measured="~4.7 µM"
test_smiles=COc1cccc(C(=O)NC2(C(=O)c3ccc(C)cc3)CCCC2)c1C measured="> 33 µM"

* * *

biological target: Gal4 DBD/AaEcR (DEF) with VP16-βRXR-E (Aedes aegypti, UniProt P49880); construct: The wildtype D, E, and F domains from mosquito Aedes aegypti EcR (“AaEcR-DEF”); expressed in transfected cells; host or cells: 3T3 cells, transient transfection (Superfect); assay: cell-based; type: cell-based; details: single dose 33 μM; RLU ligand treated / RLU DMSO treated cells
Listed next: entries and their corresponding Fold Induction Average, AA_3T3 Assay (33 μM).
recorded-endpoint: Fold Induction Average, AA_3T3 Assay (33 μM)

compound=COc1cccc(C(=O)NC(C)(C)C(=O)c2cc(C)cc(C)c2)c1C measured=161
compound=COc1cccc(C(=O)NC2(C(=O)c3ccccc3)CCCC2)c1 measured=1
compound=CCC(CC)(NC(=O)c1cccc(OC)c1C)C(=O)c1ccccc1 measured=14
compound=COc1cccc(C(=O)NC2(C(=O)c3cc(C)cc(C)c3)CCN(C(=O)OC(C)C)CC2)c1C measured=1
compound=COc1ccccc1C(=O)C1(NC(=O)c2cccc(OC)c2C)CCCCCC1 measured=1878
compound="COc1cccc(C(=O)NC(C)(C(=O)c2cc(C)cc(C)c2)c2ccc(F)cc2)c1C (centres unmarked)" measured=1
compound=O=C(NC1(C(=O)c2ccccc2)CCCC1)c1ccccc1 measured=2
compound=CCNC(=O)N1CCC(NC(=O)c2cccc(OC)c2C)(C(=O)c2cc(C)cc(C)c2)CC1 measured=1

* * *

Listed here: items and their measured CC50.
Molecular target: GAL4 DBD (1-147)-CfEcR(DEF)/VP16AD-βRXREF-LmUSPEF (Choristoneura fumiferana, UniProt O77240)
Sequence (O77240 191-513): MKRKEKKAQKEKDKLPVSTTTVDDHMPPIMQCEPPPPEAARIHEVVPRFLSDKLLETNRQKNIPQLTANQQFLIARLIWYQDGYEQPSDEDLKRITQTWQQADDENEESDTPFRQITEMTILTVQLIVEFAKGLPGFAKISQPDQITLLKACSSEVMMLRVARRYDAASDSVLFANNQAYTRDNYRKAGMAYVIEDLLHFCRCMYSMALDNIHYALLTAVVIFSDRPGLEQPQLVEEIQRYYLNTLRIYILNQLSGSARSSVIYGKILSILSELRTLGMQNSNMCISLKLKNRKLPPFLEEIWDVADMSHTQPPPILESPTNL
Sequence (P28702 296-455 partner limits assumed): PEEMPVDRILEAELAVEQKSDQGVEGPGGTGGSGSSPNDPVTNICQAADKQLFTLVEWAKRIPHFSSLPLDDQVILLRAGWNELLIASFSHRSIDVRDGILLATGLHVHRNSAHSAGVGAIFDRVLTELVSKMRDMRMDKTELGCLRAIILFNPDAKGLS
Test: 27-63 assay: luciferase reporter gene expression in stable CHO cell clone 27-63
Conditions: read-out: 27-63 LC50; average; dose response, three-parameter logistic model
Description: GAL4 DBD (1-147)-CfEcR(DEF)/VP16AD-βRXREF-LmUSPEF: The wild-type D, E, and F domains from spruce budworm Choristoneura fumiferana EcR (“CfEcR-DEF”; SEQ ID NO: 1) were fused to a GAL4 DNA binding domain (“Gal4 DBD1-147”; nucleotides 31 to 471 of SEQ ID NO: 2) and placed under the control of a phosphoglycerate kinase promoter (“PGK”; SEQ ID NO: 3). […] Luciferase reporter gene expression was measured 48 h after cell treatment using Bright-Glo™ Luciferase Assay System from Promega (E2650). […]
recorded-endpoint: CC50

molecule="O=C(NC1(C(=O)c2ccccc2)CCCC1)c1ccc2c(c1)OCO2 [Example 142]" recorded_endpoint=CC50 measured="> 33 µM"
molecule="COc1cccc(C(=O)NC2(C(=O)c3cc(C)cc(C)c3)CCS(=O)(=O)CC2)c1C [Example 62]" recorded_endpoint=CC50 measured="~30 µM"
molecule="CCC(CC)(NC(=O)c1cccc(OC)c1C)C(=O)c1ccccc1OC [Example 37]" recorded_endpoint=CC50 measured="~18 µM"
molecule="COc1cccc(C(=O)C(C)(NC(=O)c2cccc(OC)c2C)C(C)C)c1 (centres unmarked) [Example 32]" recorded_endpoint=CC50 measured="> 33 µM"
molecule="CCc1c(OC)cccc1C(=O)NC1(C(=O)c2ccccc2)CCCC1 [Example 21]" recorded_endpoint=CC50 measured="> 33 µM"

Cited source: patent US8129355B2
